# measured.on: UniProt Q00975
# assay.explanation: Measurement of electrophysiological response (QPatch)
# measurement.context: N Type IC50 Data Qpatch Pulse = 15, Pulse = 15; concentration range 0.01-1 μM
measurement.name: IC50

-- ask Consider the molecule shown here: `COc1ncccc1-c1nc(C2(O)CC(C)(C)OC(C)(C)C2)cn1-c1ccc(F)c(C#N)c1` What is its recorded IC50?
-- reply > 1000 nM

----------
# measured.on: human N-type Ca channel (Homo sapiens)
# Sequence (Q00975 whole entry): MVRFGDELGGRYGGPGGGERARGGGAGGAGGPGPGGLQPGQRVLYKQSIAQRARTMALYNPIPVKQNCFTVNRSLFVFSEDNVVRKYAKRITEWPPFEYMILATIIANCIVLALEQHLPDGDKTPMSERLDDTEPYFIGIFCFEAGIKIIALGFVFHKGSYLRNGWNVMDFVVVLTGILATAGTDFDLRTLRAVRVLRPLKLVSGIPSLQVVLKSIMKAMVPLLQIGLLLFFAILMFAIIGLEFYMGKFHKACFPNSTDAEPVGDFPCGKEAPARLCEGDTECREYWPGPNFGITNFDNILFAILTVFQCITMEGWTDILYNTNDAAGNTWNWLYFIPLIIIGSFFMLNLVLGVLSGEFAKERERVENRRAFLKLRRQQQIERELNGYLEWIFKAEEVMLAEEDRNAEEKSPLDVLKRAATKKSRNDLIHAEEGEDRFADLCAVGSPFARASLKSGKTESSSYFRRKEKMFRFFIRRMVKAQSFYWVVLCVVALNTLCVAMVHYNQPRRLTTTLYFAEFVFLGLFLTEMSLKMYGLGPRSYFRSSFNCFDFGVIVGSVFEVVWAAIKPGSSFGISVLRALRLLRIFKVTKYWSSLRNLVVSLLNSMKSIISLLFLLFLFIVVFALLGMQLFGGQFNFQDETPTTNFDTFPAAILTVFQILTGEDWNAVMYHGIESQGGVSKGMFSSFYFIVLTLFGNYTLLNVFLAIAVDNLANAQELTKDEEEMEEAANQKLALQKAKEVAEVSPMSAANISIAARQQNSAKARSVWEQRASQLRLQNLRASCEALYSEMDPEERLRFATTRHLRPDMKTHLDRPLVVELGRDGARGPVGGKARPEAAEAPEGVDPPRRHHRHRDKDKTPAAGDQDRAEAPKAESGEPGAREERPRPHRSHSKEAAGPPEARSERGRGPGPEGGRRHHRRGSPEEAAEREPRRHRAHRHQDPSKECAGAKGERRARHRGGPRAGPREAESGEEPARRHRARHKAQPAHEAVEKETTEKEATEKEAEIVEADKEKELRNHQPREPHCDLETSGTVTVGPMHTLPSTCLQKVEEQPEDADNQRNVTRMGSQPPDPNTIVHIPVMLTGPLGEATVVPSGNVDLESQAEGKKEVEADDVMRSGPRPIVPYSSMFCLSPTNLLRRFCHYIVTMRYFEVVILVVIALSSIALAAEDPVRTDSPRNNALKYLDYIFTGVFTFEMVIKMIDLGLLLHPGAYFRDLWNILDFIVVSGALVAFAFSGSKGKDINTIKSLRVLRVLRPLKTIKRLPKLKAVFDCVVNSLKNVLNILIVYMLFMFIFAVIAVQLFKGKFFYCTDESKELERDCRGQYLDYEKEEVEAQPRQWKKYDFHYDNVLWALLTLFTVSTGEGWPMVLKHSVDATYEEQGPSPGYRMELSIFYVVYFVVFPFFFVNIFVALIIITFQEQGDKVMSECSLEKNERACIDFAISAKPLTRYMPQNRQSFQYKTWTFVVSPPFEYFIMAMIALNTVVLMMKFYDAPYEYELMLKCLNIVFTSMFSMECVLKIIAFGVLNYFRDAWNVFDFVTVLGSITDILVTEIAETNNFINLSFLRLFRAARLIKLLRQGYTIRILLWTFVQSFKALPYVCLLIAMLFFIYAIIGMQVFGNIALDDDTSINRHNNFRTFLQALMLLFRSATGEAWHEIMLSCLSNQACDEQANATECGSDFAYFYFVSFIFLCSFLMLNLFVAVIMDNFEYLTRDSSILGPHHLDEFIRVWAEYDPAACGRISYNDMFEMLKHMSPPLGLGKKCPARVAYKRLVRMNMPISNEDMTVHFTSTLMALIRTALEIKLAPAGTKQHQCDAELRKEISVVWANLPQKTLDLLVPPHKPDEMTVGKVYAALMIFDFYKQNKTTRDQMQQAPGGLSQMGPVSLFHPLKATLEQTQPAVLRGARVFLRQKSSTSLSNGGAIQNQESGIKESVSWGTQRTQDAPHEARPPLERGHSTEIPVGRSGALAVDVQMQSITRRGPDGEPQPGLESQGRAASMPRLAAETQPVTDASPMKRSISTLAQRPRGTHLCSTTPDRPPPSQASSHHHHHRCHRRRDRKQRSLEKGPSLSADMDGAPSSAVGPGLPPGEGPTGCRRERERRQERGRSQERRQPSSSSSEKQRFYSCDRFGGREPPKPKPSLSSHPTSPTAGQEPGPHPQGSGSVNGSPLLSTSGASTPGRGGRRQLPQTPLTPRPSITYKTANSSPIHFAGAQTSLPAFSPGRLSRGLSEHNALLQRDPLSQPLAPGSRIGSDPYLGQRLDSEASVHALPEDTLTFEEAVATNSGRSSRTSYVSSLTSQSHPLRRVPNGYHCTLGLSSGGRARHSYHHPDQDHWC
# Sequence (P54284 whole entry partner): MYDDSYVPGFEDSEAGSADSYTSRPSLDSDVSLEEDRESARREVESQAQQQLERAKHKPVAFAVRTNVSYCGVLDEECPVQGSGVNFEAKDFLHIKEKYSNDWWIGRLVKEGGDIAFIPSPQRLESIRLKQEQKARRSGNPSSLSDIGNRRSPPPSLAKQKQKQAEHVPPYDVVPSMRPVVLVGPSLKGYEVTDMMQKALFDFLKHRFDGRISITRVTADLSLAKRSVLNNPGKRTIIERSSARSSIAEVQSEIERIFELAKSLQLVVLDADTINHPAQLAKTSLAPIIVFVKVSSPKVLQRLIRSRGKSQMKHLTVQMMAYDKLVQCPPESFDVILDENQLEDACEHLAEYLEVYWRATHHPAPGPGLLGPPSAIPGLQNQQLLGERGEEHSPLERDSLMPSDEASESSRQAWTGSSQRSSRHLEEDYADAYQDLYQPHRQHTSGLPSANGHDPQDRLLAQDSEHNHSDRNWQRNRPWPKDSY
# Sequence (P54289 25-956 partner limits assumed): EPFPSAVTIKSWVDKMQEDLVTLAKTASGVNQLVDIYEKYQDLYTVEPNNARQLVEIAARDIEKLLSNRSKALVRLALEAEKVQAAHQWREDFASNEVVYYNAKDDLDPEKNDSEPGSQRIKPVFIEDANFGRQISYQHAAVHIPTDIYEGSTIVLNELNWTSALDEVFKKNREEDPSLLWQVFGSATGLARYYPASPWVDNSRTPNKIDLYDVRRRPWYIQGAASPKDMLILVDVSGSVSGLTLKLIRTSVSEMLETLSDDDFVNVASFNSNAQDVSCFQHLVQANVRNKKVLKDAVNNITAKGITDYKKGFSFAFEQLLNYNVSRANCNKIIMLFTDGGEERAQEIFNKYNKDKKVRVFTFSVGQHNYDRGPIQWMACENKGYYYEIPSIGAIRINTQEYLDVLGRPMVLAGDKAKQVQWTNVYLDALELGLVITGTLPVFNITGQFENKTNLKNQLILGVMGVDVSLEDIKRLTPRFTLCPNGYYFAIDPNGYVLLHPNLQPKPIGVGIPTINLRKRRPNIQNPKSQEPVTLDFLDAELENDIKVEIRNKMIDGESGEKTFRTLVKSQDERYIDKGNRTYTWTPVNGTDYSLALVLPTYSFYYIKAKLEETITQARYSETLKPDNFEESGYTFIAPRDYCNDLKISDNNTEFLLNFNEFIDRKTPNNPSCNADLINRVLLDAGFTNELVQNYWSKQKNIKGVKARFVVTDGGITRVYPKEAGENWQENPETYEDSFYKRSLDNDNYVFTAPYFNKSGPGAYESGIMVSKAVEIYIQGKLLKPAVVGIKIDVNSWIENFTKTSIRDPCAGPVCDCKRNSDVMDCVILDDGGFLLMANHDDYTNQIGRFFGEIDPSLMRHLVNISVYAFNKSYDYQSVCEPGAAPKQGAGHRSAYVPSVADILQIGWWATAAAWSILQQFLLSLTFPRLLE
# Sequence (P54289 957-1103 partner limits assumed): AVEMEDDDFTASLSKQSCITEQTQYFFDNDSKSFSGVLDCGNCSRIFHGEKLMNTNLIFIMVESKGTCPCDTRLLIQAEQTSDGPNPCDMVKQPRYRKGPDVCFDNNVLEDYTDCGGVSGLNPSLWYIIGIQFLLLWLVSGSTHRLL
# assay.explanation: Measurement of electrophysiological response (QPatch)
# measurement.context: N Type IC50 Data Qpatch Pulse = 15, Pulse = 15; concentration range 0.3-10 μM
For each record, write down the corresponding pIC50.
In simple prose, pIC50 is minus the logarithm base ten of a concentration in moles per litre.

-- ask Consider the compound shown here: `COc1ccccc1-c1nc(C2=CC(C)(C)OC(C)(C)C2)cn1-c1ccc(C#N)c(F)c1` What is its recorded pIC50?
-- reply 5.72

-- ask Consider the compound shown here: `COc1ccccc1-c1nc(C2CC(C)(C)OC(C)(C)C2)cn1-c1ccc(C#N)c(C(F)(F)F)c1` What is its recorded pIC50?
-- reply 5.48

-- ask Consider the compound shown here: `COc1ccccc1-c1nc(C2(O)CC(C)(C)OC(C)(C)C2)cn1-c1ccc(F)c(Br)c1` What is its recorded pIC50?
-- reply 5.30
